Protocol text: NCI Yeast Anticancer Drug Screen. Data for the rad50 strain (AID 155);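 further: 0% = growth of vehicle-only cultures of the same strain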
Measurement context: S. cerevisiae rad50 strain growth inhibition; at 50.0 µM; stronger effect = higher value
About 79,000 compounds went through this panel and 15% of them were active in at least one assay; those are over-represented in the sample as a whole. The source made the active and inactive calls. No stated cut-off is given here; in the data, active means growth inhibition above about 70%; inactive means the rest.
growth inhibition overview
Outcome measure: growth inhibition

[[record]]
compound = "CN(C)/C=C/c1ccnc2c1C(=O)c1ccccc1C2=O"
reported_measurement = "83.7% (active)"

[[record]]
compound = "O=C(COc1ccc(Cl)cc1)NCCOC(=O)COc1ccc(Cl)cc1"
reported_measurement = "37.5% (inactive)"

[[record]]
compound = "CCS(=O)(=O)/C=C/c1cccnc1"
reported_measurement = "0.45% (inactive)"

[[record]]
compound = "CCn1c(=O)c(Cl)c2n(C)c3ccccc3n2c1=O"
reported_measurement = "-6.2% (inactive)"

[[record]]
compound = "CC(C)(C)c1ccc(O)c(CNCCO)c1"
reported_measurement = "21.1% (inactive)"

[[record]]
compound = "CCCCCCC1C=CC(CCCCCCCC(=O)O)C(/C=C/CCCCCCCC(=O)O)C1CCCCCC (stereo unspecified)"
reported_measurement = "-10.7% (inactive)"


Where do these numbers come from? They come from PubChem BioAssay (NCI).
